System: zebrafish larvae
Assay: Toxicity assay in zebrafish larvae (heart beat, blood flow, cardiac edema)
Assay type: in vivo, zebrafish (Danio rerio)
Conditions: drug from Sigma; 3 dpf larvae, drug added 24 hpf
Protocol: The embryos were collected and distributed into a 96-well plate in 0.5% DMSO, similar to efficacy assays. […] Heart beat and blood flow were ranked from 3 (normal heart beat or blood flow) to 0 (no heart beat or blood flow). […] The ratio of TC50/EC50 was calculated in each case. Heart beat and blood flow were ranked from 3 (normal heart beat or blood flow) to 0 (no heart beat or blood flow). […] Data is expressed as mean±SEM from 3 experiments.
Give measured TC50 (Edema) for each item. Keep answers brief.
Report the value in µM with no unit label.

Lookup: What value of TC50 (Edema) has been recorded for this entry: C[C@H]1[C@@H](O)O[C@@H]2O[C@]3(C)CC[C@H]4[C@H](C)CC[C@@H]1[C@@]24OO3 [Dihydroartemisinin]
Found: 0.7485

Lookup: What value of TC50 (Edema) has been recorded for this entry: "CO[C@H]1O[C@@H]2O[C@@]3(C)CC[C@H]4[C@H](C)CC[C@@H]([C@H]1C)[C@@]24OO3"
Found: 19.564

Lookup: What value of TC50 (Edema) has been recorded for this entry: C[C@H]1[C@H](OC(=O)CCC(=O)O)O[C@@H]2O[C@@]3(C)CC[C@H]4[C@H](C)CC[C@@H]1[C@@]24OO3 [Artesunate]
Found: 5.367

Lookup: What value of TC50 (Edema) has been recorded for this entry: "C[C@@H]1CC[C@H]2[C@@H](C)C(=O)O[C@@H]3O[C@]4(C)CC[C@@H]1[C@]32OO4"
Found: 34.134

Origin of values: patent US10292991B2
